- experimental.system: T1, recombinant human GM-CSF protein (human, UniProt P04141 18-144)
- T1 construct: Bought recombinant protein (Genscript); also called biotinylated human GM-CSF protein
- T1 sequence (P04141 18-144 limits assumed): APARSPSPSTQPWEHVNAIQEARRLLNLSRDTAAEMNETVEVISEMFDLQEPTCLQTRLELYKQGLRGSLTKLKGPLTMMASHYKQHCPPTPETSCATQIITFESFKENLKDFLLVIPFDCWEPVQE
- protocol.notes: SPR Biacore T200, antibody captured by anti-human Fc, GM-CSF as analyte, 25 C, 1:1 model

binder: Hu23F4-13 (antibody, V domains shown, Humanized) VH: EVQLVQSGAEVKKPGATVKISCKVSGYTFTSHYLHWVQQAPGKGLEWIGWIFPGDDKTKYNEKFKGRATLTSDTSTDTAYMELSSLRSEDTAVYYCARGTKYLNWNFDVWGQGTTVTVSS VL: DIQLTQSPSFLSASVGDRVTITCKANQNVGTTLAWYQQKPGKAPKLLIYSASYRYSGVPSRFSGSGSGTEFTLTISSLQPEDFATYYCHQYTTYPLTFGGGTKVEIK
quantity.unit: s⁻¹
koff: 0.00012

binder: Hu50C5-11 (antibody, V domains shown, Humanized; also called 35230Hu50C5-11) VH: EVQLVQSGAEVKKPGSSVKVSCKASGYIFSPYSIHWVRQAPGQGLEWIGYINPSTGYIEYNQHFKDRVTITADKSTSTAYMELRSLRSEDTAVYYCARGGDYEGYFDYWGQGTTVTVSS VL: DIQMTQSPSSLSASVGDRVTITCRLNENIYSFLAWYQQKPGKAPKLLIYNAETLAEGVPSRFSGSGSGTDFTLTISSLQPEDFATYYCQQHYGTPYTFGGGTKVEIK
quantity.unit: s⁻¹
koff: 0.000136

binder: 50C5 chimera (antibody, V domains shown, Human constant regions (captured by anti-human Fc IgG); also called 35230Hu50C5-chimera; Hu50C5-chimera) VH: QVQLQQSAAELVRPGASVKMSCKASGYIFTPYSIHWIKQRPGQGLEWIGYINPSTGYIEYNQHFKDRTTLTADKSSSTAYMQLRSLTSEDSAVYYCARGGDYEGYFDYWGQGTTLTVSS VL: DIQMTQSPDSLSASVGETVTITCRLNENIYSFLAWYQQRQGKSPQLLVYNAETLAEDVPSRFSGSGSGTQFSLKISSLQTDDFGTYYCQQHYGTPYTFGGGTNLEIE
quantity.unit: s⁻¹
koff: 0.000142
